Data origin: patent US7053107B2

Target: FGF-R1 (Homo sapiens, UniProt P11362, C488A/C584S/L457V)
Construct: starting from the endogenous methionine residue 456 to glutamate 766; made in house; host or cells: baculovirus vector expression system
Sequence (P11362 456-766 L457V/C488A/C584S): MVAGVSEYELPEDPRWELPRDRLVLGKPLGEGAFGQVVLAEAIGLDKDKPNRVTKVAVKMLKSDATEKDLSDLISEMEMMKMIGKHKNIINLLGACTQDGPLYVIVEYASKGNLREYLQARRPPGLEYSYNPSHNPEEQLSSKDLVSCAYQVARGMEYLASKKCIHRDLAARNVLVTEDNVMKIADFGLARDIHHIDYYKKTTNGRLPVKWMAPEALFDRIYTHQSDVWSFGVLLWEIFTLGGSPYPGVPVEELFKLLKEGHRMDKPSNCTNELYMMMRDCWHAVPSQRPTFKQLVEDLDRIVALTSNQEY
Test: Fibroblast Growth Factor (FGF-R) spectrophotometric assay
Format: biochemical
Conditions: 1 μM compound; read-out: FGF-P % inhibit @1 μM

Molecule	inhibition at 1 µM, %
Cc1cc(C)nc(/C=C/c2n[nH]c3cc(Nc4ncccc4C(=O)NCC#CC4CC4)ccc23)c1 [Example 25]	13
Cc1ccnc(/C=C/c2n[nH]c3cc(Nc4ccccc4C(=O)NCC#CC4CC4)ccc23)c1 [Example 36]	69
C=CCONC(=O)c1ccccc1Nc1ccc2c(/C=C/c3ccccn3)n[nH]c2c1 [Example 3(b)]	96
Cc1cc(C)nc(/C=C/c2n[nH]c3cc(Nc4ccccc4C(=O)NCC#CCO)ccc23)c1 [Example 10]	38
